Target: Histamine H1 receptor (Homo sapiens, UniProt P35367)
Sequence (P35367 whole entry): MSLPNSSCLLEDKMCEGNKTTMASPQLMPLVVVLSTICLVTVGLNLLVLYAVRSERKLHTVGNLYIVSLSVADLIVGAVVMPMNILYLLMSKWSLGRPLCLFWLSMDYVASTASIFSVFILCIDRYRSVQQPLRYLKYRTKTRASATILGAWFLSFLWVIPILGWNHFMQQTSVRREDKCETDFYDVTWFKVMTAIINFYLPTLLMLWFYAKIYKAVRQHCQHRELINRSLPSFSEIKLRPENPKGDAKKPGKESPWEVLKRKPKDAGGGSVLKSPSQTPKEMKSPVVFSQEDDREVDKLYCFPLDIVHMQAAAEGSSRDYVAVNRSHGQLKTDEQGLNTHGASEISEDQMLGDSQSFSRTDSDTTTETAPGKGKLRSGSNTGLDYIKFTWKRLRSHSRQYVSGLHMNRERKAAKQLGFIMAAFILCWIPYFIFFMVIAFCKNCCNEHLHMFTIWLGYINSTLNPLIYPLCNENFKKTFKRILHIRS
pKi: −log10 of the molar value.
Lab note: compare pKi against 5. Equal or greater, write Satisfied. Smaller, write Not satisfied.

Below, 4 compounds whose answers are already recorded.
[
  {
    "compound": "Cc1nc(N)sc1CCCN/C(N)=N/C(=S)NCC(c1ccccc1)c1ccccc1",
    "assigned_label": "Not satisfied"
  },
  {
    "compound": "Cc1nc(N)sc1CCCN/C(N)=N/C(=O)NCC(C)CC1CCCCC1 (stereo unspecified)",
    "assigned_label": "Satisfied"
  },
  {
    "compound": "Cc1nc(N)sc1CCCN/C(N)=N/C(=O)NCC(C)CCCc1ccccc1 (stereo unspecified)",
    "assigned_label": "Satisfied"
  },
  {
    "compound": "CCCNC(=O)/N=C(\\N)NCCCc1sc(N)nc1C",
    "assigned_label": "Not satisfied"
  }
]

Now consider the entry below.
Is reported pKi greater than or equal to 5 here: N/C(=N\C(=O)NCc1ccccc1)NC1CCc2nc(N)sc2C1 (stereo unspecified)
Satisfied

Where do the numbers come from? From ChEMBL document CHEMBL4813951.
